Target: recombinant human CD70 tagged with mouse IgG2a Fc (AcroBiosystems Cat#CDL-H525a) (human; mouse) (UniProt P32970)
Sequence (P32970 39-193): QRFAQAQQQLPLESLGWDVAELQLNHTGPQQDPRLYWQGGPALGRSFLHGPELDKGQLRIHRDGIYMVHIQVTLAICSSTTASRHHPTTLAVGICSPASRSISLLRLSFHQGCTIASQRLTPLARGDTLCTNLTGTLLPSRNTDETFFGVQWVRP
Assay: indirect ELISA, hybridoma supernatant, coated antigen A at 1 µg/ml
property-measured: OD 450 (OD 450)
Unit OD 450 implied. Number only.

- binder: "3H11D12E7 (antibody, V domains shown) VH: QIQLVQSGPELKKPGETVKISCKASGYTFTDYSMHWVKQAPGKGLKWMGWINTETGEPTYADDFKGRFAFSLETSASTAYLQINNLKNDDTATYFCARSFYRYDWYFDVWGAGTTVTVSS VL: QIVLTQSPAIMSASPGEKVTITCSASSSVSFMHWFQQKPGTSPKLWIYSTSNLASGVPARFSGSGSGTSYSLTISRMEAEDAATYYCQQRTSFPPTFGGGTNLEIK"
  unit-tag: "OD 450"
  test-value: 1.87
- binder: "18F8A8 (antibody, IgG1, V domains shown) VH: QVTLKESGPGILQPSQTLSLTCSFSGFSLSTSNMGVAWIRQPLGKGLEWLLYILWNDTKYYNPALKSRLSISKDTYNNQVFLKIVNVDTADTATYYCARIRRDYALDYWGQGTSVTVSS VL: DIVMSQSPSSLAVSVGEKVTMNCKSSQSLLYSNNQKNYLAWYQQKPGQSPKLLIYWASTRESGVPDRFTGSGSGTDFTLTISSVKAEDLAVYYCQQYYIYPLAFGGGTKLEIK"
  unit-tag: "OD 450"
  test-value: 1.97

Proceeding to the next binder to report its OD 450.
Field request: OD 450 | item: 16D7C8 (antibody, IgG3, V domains shown) VH: QVQLQQSGPELVKPGASVRISCKASGYTFTSFYIHWVKQRPGQGLEWIGWISPINININYNEKFKGKATLTADKSSSTVYMQLSSLTSEDSAVYFCEGTSENFDVWGAGTTVTVSS VL: DVLMTQIPLSLPVSLGDQASISCRSTQNIVHSNGNTYLEWYLQKPGQSPKLLIYKVSNRFSGVPDRFRGSGSGTEFTLKITRVEADDLGVYYCFQGSHVPFTFGAGTKLELK 2.12
